# targetDesc: T1, human CD33 (human, UniProt P20138 18-259, limits assumed)
# T1 construct: Human CD33 immobilized on the BLI sensor tip or the BIAcore C1 chip; also called Siglec-3
# T1 sequence (P20138 18-259 limits assumed): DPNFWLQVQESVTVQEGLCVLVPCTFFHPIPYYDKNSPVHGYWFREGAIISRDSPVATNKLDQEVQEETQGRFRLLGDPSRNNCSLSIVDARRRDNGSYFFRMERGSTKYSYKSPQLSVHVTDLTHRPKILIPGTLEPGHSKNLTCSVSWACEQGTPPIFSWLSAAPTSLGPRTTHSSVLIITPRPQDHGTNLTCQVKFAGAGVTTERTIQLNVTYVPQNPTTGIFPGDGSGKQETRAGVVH
# methodDescription: BLI (ForteBio), Fab 100 nM on immobilized CD33
reportedMetric: log10(Kd) (log10 of the value in nM)
Scale: decimal log of Kd, Kd in nM.

{"binder": "AB-14.8 (antibody, V domains shown) VH: QVQLVQSGAEVKKPGASVKVSCKASGYTFTDYNYHWVRQAPGQGLEWIGFIYPSNGITGYAQKFQGRVTMTVDTSTSTVYMELSSLRSEDTAVYYCARSDVDYFDYWGQGTLVTVSS VL: DIQMTQSPSSLPASVGDRVTITCRASQSVGTSTYSYMHWYQQKPGKAPKLLIKYASNLGSGVPSRFSGSGSGTDFTLTISSLQPEDFATYYCQHSWEIPLTFGQGTKLEIK", "log10(Kd)": -0.67}
{"binder": "AB-14.4 (antibody, V domains shown) VH: QVQLVQSGAEVKKPGASVKVSCKASGYTFTDYNYHWVRQAPGQGLEWIGFIYPSNGITGYAQKFQGRVTMTVDTSTSTVYMELSSLRSEDTAVYYCADSTVDYFDYWGQGTLVTVSS VL: DIQMTQSPSSLSASVGDRVTITCRASQDVSTSTYSYMHWYQQKPGKAPKLLIKYVSNLESGVPSRFSGSGSGTDFTLTISSLQPEDFATYYCQHSWEIPLTFGQGTKLEIK", "log10(Kd)": -0.65}
{"binder": "AB-H63 (antibody, V domains shown, Humanized variant of murine 2F5.1) VH: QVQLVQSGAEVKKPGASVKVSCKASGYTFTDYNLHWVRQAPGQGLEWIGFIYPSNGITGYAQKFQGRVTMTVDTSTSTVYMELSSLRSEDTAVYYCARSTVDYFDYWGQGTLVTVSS VL: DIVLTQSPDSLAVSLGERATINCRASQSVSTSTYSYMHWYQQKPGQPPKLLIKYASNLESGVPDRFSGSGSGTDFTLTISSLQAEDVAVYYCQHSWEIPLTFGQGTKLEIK", "log10(Kd)": 0.43}
{"binder": "AB-H14 (antibody, V domains shown, Humanized variant of murine 2F5.1) VH: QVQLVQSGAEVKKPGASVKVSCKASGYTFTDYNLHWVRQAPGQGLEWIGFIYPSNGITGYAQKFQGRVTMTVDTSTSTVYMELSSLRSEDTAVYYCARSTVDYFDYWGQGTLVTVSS VL: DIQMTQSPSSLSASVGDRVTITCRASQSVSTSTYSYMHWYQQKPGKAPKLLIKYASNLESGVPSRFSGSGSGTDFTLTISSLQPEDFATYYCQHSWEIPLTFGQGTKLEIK", "log10(Kd)": 0.46}
{"binder": "AB-63.9 (antibody, V domains shown) VH: QVQLVQSGAEVKKPGASVKVSCKASGYAFTDYNLHWVRQAPGQGLEWIGFIYPSNGITGYAQKFQGRVTMTVDTSTSTVYMELSSLRSEDTAVYYCARSDVDYFDYWGQGTLVTVSS VL: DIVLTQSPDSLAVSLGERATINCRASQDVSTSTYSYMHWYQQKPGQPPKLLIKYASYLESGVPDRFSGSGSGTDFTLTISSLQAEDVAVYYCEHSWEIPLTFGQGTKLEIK", "log10(Kd)": -0.57}
{"binder": "AB-63.6 (antibody, V domains shown) VH: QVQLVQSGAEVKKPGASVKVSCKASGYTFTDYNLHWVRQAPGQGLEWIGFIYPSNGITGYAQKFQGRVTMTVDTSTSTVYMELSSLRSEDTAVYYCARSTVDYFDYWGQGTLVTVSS VL: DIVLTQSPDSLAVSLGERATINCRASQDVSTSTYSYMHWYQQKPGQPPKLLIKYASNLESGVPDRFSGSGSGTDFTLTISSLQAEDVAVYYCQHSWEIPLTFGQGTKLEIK", "log10(Kd)": -0.52}
{"binder": "AB-14.9 (antibody, V domains shown) VH: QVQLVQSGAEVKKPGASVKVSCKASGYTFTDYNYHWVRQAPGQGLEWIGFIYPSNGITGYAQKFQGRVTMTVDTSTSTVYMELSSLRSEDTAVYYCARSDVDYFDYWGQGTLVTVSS VL: GIQMTQSPSSLSASVGDRVTITCRASQSVGTSTYSYMHWYQQKPGKAPKLLIKYAVNLESGVPSRFSGSGSGTDFTLTISSLQPEDFATYYCQHSWEIPLTFGQGTKLEIK", "log10(Kd)": -0.66}
{"binder": "AB-14.10 (antibody, V domains shown) VH: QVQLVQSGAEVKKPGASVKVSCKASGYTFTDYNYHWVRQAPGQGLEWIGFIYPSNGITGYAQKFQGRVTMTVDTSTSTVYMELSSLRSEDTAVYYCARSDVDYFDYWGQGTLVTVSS VL: DIQMTQSPSSLSASVGDRVTITCRASQSVSASTYSYMHWYQQKPGKAPKLLIKYASNLESGVPSRFSGSGSGTDFTLTISSLQPEDLATYYCQHSWEIPLTFGQGTKLEIK", "log10(Kd)": -0.66}

For each entry beneath this line, provide reported log10(Kd).
1. AB-14.2 (antibody, V domains shown) VH: QVQLVQSGAEVKKPGASVKVSCKASGATFTDYNYHWVRQAPGQGLEWIGFIYPSNGITGYAQKFQDRVTMTVDTSTSTVYMELSSLRSEDTAVYYCARSFVDYFDYWGQGTLVTVSS VL: DIQMTQSPSSLSASVGDRVTITCRASQDVSTSTYSYMHWYQQKPGKAPKLLIKYASNLESGVPSRFSGSGSGTDFTLTISSLQPEDFATYYCQHSWEIPLTFGQGTKLEIK
2. AB-63.11 (antibody, V domains shown) VH: QVQLVQSGAEVKKPGASVKVSCKASGYTFTDYNFHWVRQAPGQGLEWIGFIYPANGITGYAQKDQGRVTMTVDTSTSTVYMELSSLRSEDTAVYYCARSDVDYFDYWGQGTLVTVSS VL: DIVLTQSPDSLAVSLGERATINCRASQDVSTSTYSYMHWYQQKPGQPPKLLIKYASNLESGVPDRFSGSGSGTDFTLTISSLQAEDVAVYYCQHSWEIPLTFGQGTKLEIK

1: -0.69; 2: -0.42
